assay: AUC (0 to infinity) in Wistar rat at 4 mg/kg, iv; format: ADME, organism-based; design: dose 4 mg/kg, time infinity, route intravenous; details: in vivo
Assay endpoint: AUC(0-inf) (ng·h/mL)
Just the number please, in ng·h/mL, no unit attached.

Task: So what does the record say about AUC(0-inf) for [2H]/C(c1nc[nH]c1C(C)(C)C)=c1/[nH]c(=O)/c(=C/c2ccccc2)[nH]c1=O ?
Output: 1330

###

Catalogue of remaining at 2.5 h, 50 µM values
assay: Stability in rat liver microsomes at 50 uM after 150 mins in presence of NADPH by LC-MS/MS analysis; assay type: ADME, microsome; details: read-out: Stability
Write the value in % as a bare number.

| Smiles structure | U | remaining at 2.5 h, 50 µM |
| --- | --- | --- |
| [2H]/C(c1nc[nH]c1C(C)(C)C)=c1/[nH]c(=O)/c(=C/c2ccccc2)[nH]c1=O | % | 32.9 |

Let's switch to this compound now.
Task: Can you share its remaining at 2.5 h, 50 µM? I mean this compound: CC(C)(C)c1[nH]cnc1/C=c1\[nH]c(=O)/c(=C/c2ccccc2)[nH]c1=O
Output: 29.9

###

experiment: Stability in rat liver microsomes at 50 uM after 10 mins in presence of NADPH by LC-MS/MS analysis; assay type: ADME, microsome; conditions: liver microsomes, read-out: Stability
Assay endpoint: remaining at 10 min, 50 µM

Task: Which value of remaining at 10 min, 50 µM has been reported for [2H]/C(c1nc[nH]c1C(C)(C)C)=c1/[nH]c(=O)/c(=C/c2ccccc2)[nH]c1=O in the records?
Output: 80.6%

###

Target or system Cytochrome P450 2C9 (Homo sapiens); recorded quantity IC50.

| Compound | Observed |
| --- | --- |
| [2H]/C(c1nc[nH]c1C(C)(C)C)=c1/[nH]c(=O)/c(=C/c2ccccc2)[nH]c1=O | 560 nM |

Consider the record given below.
Task: Any idea what IC50 came out for CC(C)(C)c1[nH]cnc1/C=c1\[nH]c(=O)/c(=C/c2ccccc2)[nH]c1=O [PLINABULIN] on Cytochrome P450 2C9 (Homo sapiens)?
Output: 530 nM

###

test: Drug excretion in Wistar rat feces at 4 mg/kg, iv measured after 4 hrs; type: ADME, organism-based; conditions: faeces, read-out: Drug excretion
Assay endpoint: dose excreted at 4 h (%)
Your answer is read as %, so omit the unit and give the number.

Task: Quick check: dose excreted at 4 h of [2H]/C(c1nc[nH]c1C(C)(C)C)=c1/[nH]c(=O)/c(=C/c2ccccc2)[nH]c1=O ?
Output: 0.11

###

assay: Clearance in Wistar rat at 4 mg/kg, iv; type: ADME, organism-based; conditions: in vivo
Assay endpoint: clearance (mL/min/kg)
Write the number in mL/min/kg without appending the unit.

Task: Reported clearance, molecule [2H]/C(c1nc[nH]c1C(C)(C)C)=c1/[nH]c(=O)/c(=C/c2ccccc2)[nH]c1=O : ____
Output: 71.4

###

assay: Stability in rat liver microsomes at 50 uM after 20 mins in presence of NADPH by LC-MS/MS analysis; format: ADME, microsome; conditions: read-out: Stability
Listed below: remaining at 20 min, 50 µM values for each entry.
Answer format: numeric, % implied, no suffix.

| Smiles structure | Assay endpoint | Observed |
| --- | --- | --- |
| [2H]/C(c1nc[nH]c1C(C)(C)C)=c1/[nH]c(=O)/c(=C/c2ccccc2)[nH]c1=O | remaining at 20 min, 50 µM | 74.8 |

Now let's try a different one.
Task: Which remaining at 20 min, 50 µM value is on record for CC(C)(C)c1[nH]cnc1/C=c1\[nH]c(=O)/c(=C/c2ccccc2)[nH]c1=O ?
Output: 63.5

###

experiment: Drug excretion in Wistar rat urine at 4 mg/kg, iv measured after 108 hrs; assay type: ADME, organism-based; conditions: read-out: Drug excretion
Assay endpoint: dose excreted at 108 h (%)
Your answer should be a plain number; it is taken to be in %.

Task: Name the recorded dose excreted at 108 h for [2H]/C(c1nc[nH]c1C(C)(C)C)=c1/[nH]c(=O)/c(=C/c2ccccc2)[nH]c1=O .
Output: 0.67

###

experiment: Stability in rat plasma at 1 uM after 90 mins by LC-MS/MS analysis; type: ADME, cell-free; conditions: read-out: Stability
Assay endpoint: remaining at 1.5 h, 1 µM (%)
The answer is to be given in %; state only the numeric part.

| Compound | Assay endpoint | U | Observed |
| --- | --- | --- | --- |
| CC(C)(C)c1[nH]cnc1/C=c1\[nH]c(=O)/c(=C/c2ccccc2)[nH]c1=O [PLINABULIN] | remaining at 1.5 h, 1 µM | % | 110 |

We next turn to a different compound, shown below.
Task: Which remaining at 1.5 h, 1 µM value belongs to [2H]/C(c1nc[nH]c1C(C)(C)C)=c1/[nH]c(=O)/c(=C/c2ccccc2)[nH]c1=O ?
Output: 99.3

###

assay: Stability in rat plasma at 1 uM after 5 mins by LC-MS/MS analysis; type: ADME, cell-free; details: read-out: Stability
# remaining at 5 min, 1 µM per record follows
Note: unit % is implicit; provide only the numeric part.

| Smiles structure | remaining at 5 min, 1 µM / % |
| --- | --- |
| CC(C)(C)c1[nH]cnc1/C=c1\[nH]c(=O)/c(=C/c2ccccc2)[nH]c1=O | 95.5 |

Here is another compound to look at.
Task: Could you share which remaining at 5 min, 1 µM value was measured for [2H]/C(c1nc[nH]c1C(C)(C)C)=c1/[nH]c(=O)/c(=C/c2ccccc2)[nH]c1=O ?
Output: 93.9

###

assay: Drug excretion in Wistar rat feces at 4 mg/kg, iv measured after 8 hrs; assay type: ADME, organism-based; settings: faeces, read-out: Drug excretion
Assay endpoint: dose excreted at 8 h
Returns: string containing the number followed by the unit.

Task: Would you kindly share the measured dose excreted at 8 h for [2H]/C(c1nc[nH]c1C(C)(C)C)=c1/[nH]c(=O)/c(=C/c2ccccc2)[nH]c1=O ?
Output: 0.11%

###

test: Drug excretion in Wistar rat feces at 4 mg/kg, iv measured after 48 hrs; assay type: ADME, organism-based; conditions: faeces, read-out: Drug excretion
Assay endpoint: dose excreted at 48 h (%)
Kindly provide the numeric value in % only, without the unit symbol.

Task: Value lookup for dose excreted at 48 h; key = [2H]/C(c1nc[nH]c1C(C)(C)C)=c1/[nH]c(=O)/c(=C/c2ccccc2)[nH]c1=O
Output: 6.1

###

experiment: Drug excretion in Wistar rat urine at 4 mg/kg, iv measured after 24 hrs; assay type: ADME, organism-based; details: read-out: Drug excretion
Assay endpoint: dose excreted at 24 h (%)
Write the number in % without appending the unit.

Task: May I ask what dose excreted at 24 h has been recorded for [2H]/C(c1nc[nH]c1C(C)(C)C)=c1/[nH]c(=O)/c(=C/c2ccccc2)[nH]c1=O ?
Output: 0.2

###

experiment: Drug excretion in Wistar rat feces at 4 mg/kg, iv measured after 24 hrs; assay type: ADME, organism-based; conditions: faeces, read-out: Drug excretion
Assay endpoint: dose excreted at 24 h (%)
// note: answer is a bare numeric in %

Task: Form field: reported dose excreted at 24 h of [2H]/C(c1nc[nH]c1C(C)(C)C)=c1/[nH]c(=O)/c(=C/c2ccccc2)[nH]c1=O
Output: 5.65

###

experiment: Stability in rat liver microsomes at 50 uM after 5 mins in presence of NADPH by LC-MS/MS analysis; assay type: ADME, microsome; details: liver microsomes, read-out: Stability
Assay endpoint: remaining at 5 min, 50 µM (%)
Response body: numeric value in %, unit text excluded.

Task: Requested read-out: remaining at 5 min, 50 µM. Entry: [2H]/C(c1nc[nH]c1C(C)(C)C)=c1/[nH]c(=O)/c(=C/c2ccccc2)[nH]c1=O
Output: 84.8

###

experiment: Half life in Wistar rat at 8 mg/kg, iv; assay type: ADME, organism-based; details: in vivo
Assay endpoint: half-life (h)
Give the quantity in h, number only.

Task: Item [2H]/C(c1nc[nH]c1C(C)(C)C)=c1/[nH]c(=O)/c(=C/c2ccccc2)[nH]c1=O has what recorded half-life?
Output: 2.29

###

assay: Apparent volume of distribution in Wistar rat at 8 mg/kg, iv; format: ADME, organism-based; conditions: in vivo, read-out: Vz
Assay endpoint: Vd
Number first, unit second: that is the form wanted.

Task: Query: Vd; subject: [2H]/C(c1nc[nH]c1C(C)(C)C)=c1/[nH]c(=O)/c(=C/c2ccccc2)[nH]c1=O
Output: 16.2 L/kg

###

assay: AUClast in Wistar rat at 8 mg/kg, iv; type: ADME, organism-based; parameters: dose 8 mg/kg, time 0 - last, route intravenous; conditions: in vivo
Assay endpoint: AUC(0-t) (ng·h/mL)
Express it in ng·h/mL; write the number only.

Task: Entry under review: [2H]/C(c1nc[nH]c1C(C)(C)C)=c1/[nH]c(=O)/c(=C/c2ccccc2)[nH]c1=O . Reported AUC(0-t)?
Output: 5780

Provenance of the data: ChEMBL document CHEMBL4229536
